# System: SK-MEL-2 melanoma
# method-description: NCI-60 one-dose screen, 48 h (100 = growth as untreated, 0 = no growth, -100 = all killed)
# measurement-setup: 10 µM unless noted
Compounds without any hit were thinned out: in the full panel of roughly 83,000, 20% have a hit.
# binarize growth: threshold 80% inclusive, high side condition met, low side condition not met

Examples with answers:
>>> group_label("COC(=O)c1cc(=O)nc(N/N=C/c2ccccc2O)s1")
"condition met"
>>> group_label("COc1cc(OC)c2c(=O)cc(-c3ccccc3)oc2c1")
"condition met"

Q: Is it the case that `O=C1NCCN1/N=C/c1c(Cl)nc2n1CCS2` has growth reaching or exceeding 80%?
Ans: condition not met

Q: Is the recorded value of growth equal to or greater than 80% for this compound? `COc1cccc(Cn2cc3c(c2)-c2oncc2CC3)c1`
Ans: condition not met

Q: Would you say `CC1(C)N=C(N)N=C(N)N1c1cccc(CCCCOc2ccccc2)c1` shows growth at minimum 80%?
Ans: condition not met

Q: Would you say `CC[n+]1c(C)ccc2cc(C)ccc21` shows growth at minimum 80%?
Ans: condition met

Q: Please check the record `C#CCCCCCCC[C@@H]1OC(=O)[C@H]([C@@H](C)CC)NC(=O)[C@H]([C@@H](C)CC)NC(=O)CC(=O)[C@@H]1C` and state if its growth is at or above 80%.
Ans: condition met

Q: In plain terms: is recorded growth at least 80% for `CC(=O)c1cc(Nc2cc(C)nc(N)n2)cc(C(C)=O)c1` ?
Ans: condition met

Q: Hello, I need to know if `COC(=O)c1ccc2[nH]c(O)c(C(=Nc3ccc(N(C)C(=O)CN4CCN(C)CC4)cc3)c3ccc(N)cc3)c2c1` has measured growth not below 80%. Thanks!
Ans: condition met

---

Can you tell me growth for the items I'm about to list?
# System: ACHN renal
# method-description: NCI-60 one-dose screen, 48 h (100 = growth as untreated, 0 = no growth, -100 = all killed)
# measurement-setup: 10 µM unless noted
Compounds without any hit were thinned out: in the full panel of roughly 83,000, 20% have a hit.
Answers are plain numbers, in %.

Reference set, count: 5
>>> reading("CCCCCCNC(=O)Oc1ccc(/C(=C(/C)Cc2ccc(OC)cc2)c2ccc(OCCN(C)C)cc2)cc1")
64.2
>>> reading("Cc1ncc(C(=O)Nc2ccc(CN3CCN(C)CC3)c(C(F)(F)F)c2)cc1C#Cc1c(N)ncc2ccccc12")
-100
>>> reading("C/C=C/C/C=C/[C@H](C)C[C@H](O)[C@@H]1C[C@@H]2O[C@H]2/C=C/[C@H](O)[C@@H](O)/C=C/C[C@H](C)CC(=O)O1")
77.5
>>> reading("COc1ccc(C(=O)NCCNc2nccc(-c3c(-c4ccc(F)cc4)nc4sccn34)n2)cc1")
29.2
>>> reading("COc1ccc2c(N)ncc(C#Cc3cc(C(=O)Nc4ccc(CN5CCN(C)CC5)c(C(F)(F)F)c4)cnc3C)c2c1")
-78.5

For each entry beneath this line, provide reported growth.
1. CCOC(=O)C1=C(C(F)(F)F)NC(=O)NC1CN1C(=O)c2ccccc2C1=O (stereo not drawn)
2. NC(=O)c1c(Nc2ccccc2)nn2cc(-c3nc4ccccc4s3)c(N)nc12
3. Cc1nc2c(nnn2-c2ccccc2)c2nc(-c3ccc(Cl)cc3)oc(=O)c12

Ans:
[120, 96.3, 107]

This collection of values is drawn from PubChem BioAssay (NCI).
